System: TRZAS Triso
Experiment: Safener seed treatment, pre-emergence herbicide, crop damage
Type: in vivo, spring wheat
Set-up: key: % crop damage without safener minus % damage with safener
Conditions: HER 15 g a.i./ha pre-emergence, isoxadifen-ethyl 0.25 g a.i./kg seed, 11 DAT (Interim)
Reported Reduction [Difference] values for the following compounds.
No unit in the answer, only the number.

These solved cases illustrate the format of a correct answer.
{"compound": "COC(=O)C1C=CC(NC(=O)C2(C(F)(F)F)CC(c3cccc(F)c3)=NO2)C1 (centres unmarked)", "Reduction [Difference]": 30}
{"compound": "CSCCOC(=O)C1C=CC(NC(=O)C2(C(F)(F)F)CC(c3cc(F)cc(F)c3)=NO2)C1 (centres unmarked)", "Reduction [Difference]": 25}
{"compound": "COCCOC(=O)C1C=CC(NC(=O)C2(C)CC(c3cc(Cl)cc(C#N)c3)=NO2)C1 (centres unmarked)", "Reduction [Difference]": 20}
{"compound": "C=CC1(C(=O)NC2C=CC(C(=O)OC)C2)CC(c2cc(F)cc(F)c2)=NO1 (centres unmarked)", "Reduction [Difference]": 20}

The value of Reduction [Difference] recorded for CC1(C(=O)NC2C=CC(C(=O)O)C2)CC(c2cc(F)cc(F)c2)=NO1 (centres unmarked) when tested on TRZAS Triso reads 20

---

Tested on: ZEAMA Sileno
Assay: Safener seed treatment, pre-emergence herbicide, crop damage
Type: in vivo, maize
Conditions: HER 80 g a.i./ha pre-emergence, no safener, 14 DAT
attribute-measured: HER effect (%)
Field format: number, assumed %, no unit text.

{"compound": "CCOC(=O)C1C=CC(NC(=O)C2(C(F)(F)F)CC(c3ccccc3)=NO2)C1 (stereo not drawn) [Example 1.9]", "result": 30}

Lookup result for CN(C)C(=O)SCCOC(=O)C1C=CC(NC(=O)C2(C)CC(c3cc(F)cc(F)c3)=NO2)C1 (stereo not drawn) [Example 1.29] ; measured HER effect: 60

Lookup result for COCCOC(=O)C1C=CC(NC(=O)C2(C(F)(F)F)CC(c3cc(F)cc(C#N)c3)=NO2)C1 (stereo not drawn) [Example 1.2] ; measured HER effect: 45

Lookup result for C=CC1(C(=O)NC2C=CC(C(=O)OC)C2)CC(c2cc(F)cc(F)c2)=NO1 (stereo not drawn) [Example 1.26] ; measured HER effect: 70

Lookup result for C=CC1(C(=O)NC2COC(C(=O)OC)C2)CC(c2cc(F)cc(F)c2)=NO1 (stereo not drawn) [Example 1.70] ; measured HER effect: 95

Lookup result for COCCOC(=O)C1C=CC(NC(=O)C2(C)CC(c3cc(Cl)cc(C#N)c3)=NO2)C1 (stereo not drawn) [Example 1.5] ; measured HER effect: 60

---

Reported Reduction [Difference] values for the following compounds.
Tested on: ZEAMA Sileno
Assay: Tank-mix post-emergence crop damage, greenhouse, visual assessment
Assay type: in vivo, maize
Set-up: key: % points: herbicide damage without safener − damage with safener
Settings: HER 32 g a.i./ha, isoxadifen-ethyl 100 g a.i./ha, Final

These solved cases illustrate the format of a correct answer.
{"compound": "CN(C)C(=O)SCCOC(=O)C1C=CC(NC(=O)C2(C)CC(c3cc(F)cc(F)c3)=NO2)C1 (centres unmarked)", "Reduction [Difference]": 50}
{"compound": "COC(=O)C1OCCC1NC(=O)C1(C)CC(c2cc(F)cc(F)c2)=NO1 (centres unmarked)", "Reduction [Difference]": 59}
{"compound": "COC(=O)C1=CC(NC(=O)C2(C)CC(c3cc(F)cc(F)c3)=NO2)CC1 (centres unmarked)", "Reduction [Difference]": 45}
{"compound": "COC(=O)C1C=CC(NC(=O)C2(C(F)(F)F)CC(c3cccc(F)c3)=NO2)C1 (centres unmarked)", "Reduction [Difference]": 77}

Lookup result for C=CCOC(=O)C1CC(NC(=O)C2(C=C)CC(c3cc(F)cc(F)c3)=NO2)CO1 (mixture of isomers) ; measured Reduction [Difference]: 65

Lookup result for COC(=O)C1C=CC(NC(=O)C2(C)CC(c3cc(Cl)cc(C#N)c3)=NO2)C1 (mixture of isomers) ; measured Reduction [Difference]: 40
